Molecular target: human Autotaxin protein (Homo sapiens, UniProt Q13822)
Assay: Evaluation of the inhibitory activity against human Autotaxin protein (18:1 LysoPC substrate, choline assay kit, absorbance at 570 nm)
Type: biochemical
Settings: compound at 500nM; 2 hours at 37 °C; % inhibition = (1 - absorbance test group / absorbance control group) X 100
measured_quantity: inhibition at 0.5 µM

Clc1ccc2c(c1)CC(Nc1ncc(-c3nnc(N4CC(c5c[nH]nn5)C4)o3)cn1)C2 (stereo not shown) [Example 91]    97.1%
Fc1cc2c(cc1F)CC(Nc1ncc(-c3nnc(N4CC(c5c[nH]nn5)C4)o3)cn1)C2 [Example 39]    98%

Query: Can you share its inhibition at 0.5 µM? I mean this compound: Fc1ccc2c(c1)CC(Nc1ncc(-c3nnc(N4CC(c5c[nH]nn5)C4)o3)cn1)C2 (stereo not shown) [Example 65]
Reply: 100%

Query: Next: c1cnc2c(n1)CC(Nc1ncc(-c3nnc(N4CC(c5c[nH]nn5)C4)o3)cn1)C2 [Example 74]
Reply: 7.1%

Ref: patent EP4559911A1
